Origin of measurements: patent US9157917B2

Experiment Summary: Release of dyes from precursors through heat in PP tubes containing PE pellets
Assay type: physicochemical
Protocol Conditions: PP tubes and PE pellets (emptied and flushed with water) after heating for 40 min at 90° C.
Measured Metric: Color of tube

CN(C)c1ccc(C(=O)c2ccccc2-n2cc(O[C@@H]3O[C@H](CO)[C@H](O)[C@H](O)[C@H]3O)c3ccc(Cl)cc32)cc1 [Aldol™ 518 beta-D-galactoside]	No color
COc1ccc(C(=O)c2ccccc2-n2cc(O[C@@H]3O[C@H](CO)[C@H](O)[C@H](O)[C@H]3O)c3ccccc32)c(OC)c1 [Aldol™ 470 beta-D-galactoside]	No color
Cn1cccc1C(=O)c1ccccc1-n1cc(O[C@@H]2O[C@H](CO)[C@H](O)[C@H](O)[C@H]2O)c2ccc(Cl)cc21 [Aldol™ 495 beta-D-galactoside]	No color
